Test system: Plasmodium falciparum NF54 gametocytes
Settings: gametocyte stage: Stage I Dose Response IC50 (µM); assay protocol: TSSA, 384; incubation time: 72 h
ENDPOINT: IC50 of gametocyte viability (µM)
Use µM as the unit, but write only the number.

C[C@H]1[C@@H](O)O[C@@H]2O[C@@]3(C)CC[C@H]4[C@H](C)CC[C@@H]1[C@@]24OO3 [Artenimol (Dihydro artemisinin)] : 0.00685

Request - read-out IC50 of gametocyte viability | tested on Plasmodium falciparum NF54 gametocytes | compound "CC(C)(C)NCc1cc(Nc2ccnc3cc(Cl)ccc23)c2c(c1O)CCCC2"
0.0234

Entry "C[C@H]1[C@H](N2CCS(=O)(=O)CC2)O[C@@H]2O[C@@]3(C)CC[C@H]4[C@H](C)CC[C@@H]1[C@@]24OO3" , system Plasmodium falciparum NF54 gametocytes: what IC50 of gametocyte viability was measured?
0.00264

Form field - read-out: IC50 of gametocyte viability; system: Plasmodium falciparum NF54 gametocytes; submitted item: CCN(CC)CCCC(C)Nc1cc(OC)cc2cccnc12 (configuration not stated)
1.67

What is its IC50 of gametocyte viability for Plasmodium falciparum NF54 gametocytes? Entry: COc1cc(NC(C)CCCN)c2ncccc2c1 (configuration not stated)
3.35

Recall the recorded IC50 of gametocyte viability for "C=C(NC(=O)C(=C)NC(=O)c1csc(C2=N[C@@H]3c4csc(n4)[C@H]4NC(=O)c5csc(n5)[C@H]([C@](C)(O)[C@@H](C)O)NC(=O)[C@H]5CSC(=N5)/C(=C/C)NC(=O)[C@H]([C@@H](C)O)NC(=O)c5csc(n5)[C@]3(CC2)NC(=O)[C@H](C)NC(=O)C(=C)NC(=O)[C@H](C)NC(=O)[C@H]([C@@H](C)CC)N[C@@H]2C=Cc3c([C@H](C)O)cc(nc3[C@H]2O)C(=O)O[C@@H]4C)n1)C(N)=O" with Plasmodium falciparum NF54 gametocytes and state it.
4.04

Find the measured IC50 of gametocyte viability: item C[C@@H]1C[C@@H]([C@H](O)CC2CC(=O)NC(=O)C2)C(=O)[C@@H](C)C1 [Cycloheximide] , target or system Plasmodium falciparum NF54 gametocytes.
1.23

Origin of measurements: the supplement of paper PMC4723716
